CONDITION_LABEL: siRNA; note: test system not given here
HELM strings list units from the 5' end as sugar, base in round brackets, then linkage (d deoxyribose, r ribose, m 2'-O-methyl, p phosphodiester). Strings are as the collection lists them, not checked against the first reports. ss, as = sense and antisense strand; [lna] = locked nucleic acid (LNA); [s4r] = 4'-thioribose; [fl2r] = 2'-fluoro
ATTRIBUTE_MEASURED: target mRNA knockdown (%)

# SUBSTANCE, QUANTITY_UNIT, RECORDED_RESULT
measured = [
    ("RNA1{r(C)p.r(G)p.r(U)p.r(A)p.r(C)p.r(G)p.r(C)p.r(G)p.r(G)p.r(A)p.r(A)p.r(U)p.r(A)p.r(C)p.r(U)p.r(U)p.r(C)p.r(G)p.r(A)p.r(T)p.r(T)}|RNA2{[s4r](U)p.[s4r](C)p.[s4r](G)p.[s4r](A)p.[s4r](A)p.[s4r](G)p.r(U)p.r(A)p.r(U)p.r(U)p.r(C)p.r(C)p.r(G)p.r(C)p.r(G)p.r(U)p.r(A)p.r(C)p.r(G)p.r(T)p.r(T)}$$$RNA1{StrandType:ss}|RNA2{StrandType:as}$", "%", 70.9),
    ("RNA1{r(C)p.r(U)p.r(U)p.r(A)p.r(C)p.r(G)p.r(C)p.r(U)p.r(G)p.r(A)p.r(G)p.r(U)p.r(A)p.r(C)p.r(U)p.r(U)p.r(C)p.r(G)p.r(A)p.r(T)p.r(T)}|RNA2{r(U)p.r(C)p.r(G)p.r(A)p.r(A)p.r(G)p.r(U)p.r(A)p.[lna](C)p.r(U)p.r(C)p.r(A)p.r(G)p.r(C)p.r(G)p.r(U)p.r(A)p.r(A)p.r(G)p.r(T)p.r(T)}$$$RNA1{StrandType:ss}|RNA2{StrandType:as}$", "%", 85),
    ("RNA1{r(A)p.r(A)p.r(C)p.r(U)p.r(C)p.r(U)p.r(A)p.r(C)p.[fl2r](U)p.r(G)p.r(U)p.r(G)p.r(G)p.r(A)p.r(G)p.r(U)p.r(C)p.r(G)p.r(G)p.r(T)p.r(T)}|RNA2{r(C)p.r(C)p.r(G)p.r(A)p.r(C)p.r(U)p.r(C)p.[fl2r](C)p.r(A)p.r(C)p.r(A)p.r(G)p.[fl2r](U)p.r(A)p.r(G)p.r(A)p.r(G)p.r(U)p.r(U)p.r(T)p.r(T)}$$$RNA1{StrandType:ss}|RNA2{StrandType:as}$", "%", 72),
]

Taken from the OligoGym collection.
